- Test system: P. falciparum NF54 strain (sensitive to standard antimalarials)
- procedureSummary: semiautomated microdilution assay, [3H]-hypoxanthine incorporation, NF54 strain
- Format: cell-based, Plasmodium falciparum
- details: Plasmodium falciparum, NF54, 72 h, read-out: IC50 (ng/ml) NF54
propertyLabel: IC50 (ng/mL)
Please state the figure in ng/mL; there is no need to write the unit.

Reported IC50, compound OC1CCC2(CC1)OOC1(O2)C2CC3CC(C2)CC1C3 (stereo not shown) [OZ32] : ____
0.51

Reported IC50, compound CC1(O)CCC2(CC1)OOC1(O2)C2CC3CC(C2)CC1C3 (stereo not shown) [OZ90] : ____
0.84

Reported IC50, compound C1CCC2(CC1)OOC1(O2)C2CC3CC(C2)CC1C3 (stereo not shown) [OZ03] : ____
1.6

Reported IC50, compound OCCC1CCC2(CC1)OOC1(O2)C2CC3CC(C2)CC1C3 (stereo not shown) [OZ89] : ____
0.75

---

Record form. Attribute: % reduction of adult worms growth at day 49 after per os application of 200 mg/kg, TWR (%). Fill in for each entry.
- Test system: Schistosoma mansoni adult schistosomes (49-day-old)
- procedureSummary: effect on adult schistosomes (49-day-old) in mice
- Format: in vivo
- details: single 200 mg/kg per os
- Protocol: Mice were infected with 100 Schistosoma mansoni cercariae […]. Each group was treated per os with OZ compounds at single doses of 200, 400, and 600 mg/kg. […] All groups were killed 4 weeks after treatment and the liver and intestine were removed and separated. The liver and intestine were compressed and alive male and female worms could be seen and counted.
Numeric answer plus unit only.

Reported % reduction of adult worms growth at day 49 after per os application of 200 mg/kg, TWR (%), compound O=C(C[C@H]1CC[C@]2(CC1)OOC1(O2)C2CC3CC(C2)CC1C3)N1CCOCC1 (stereo partly shown) [OZ189] : ____
0%

Reported % reduction of adult worms growth at day 49 after per os application of 200 mg/kg, TWR (%), compound O=C(O)CC1CCC2(CC1)OOC1(O2)C2CC3CC(C2)CC1C3 (stereo not shown) [OZ78] : ____
24%

Reported % reduction of adult worms growth at day 49 after per os application of 200 mg/kg, TWR (%), compound Cc1ccc(S(=O)(=O)O)cc1.NC[C@H]1CC[C@]2(CC1)OOC1(O2)C2CC3CC(C2)CC1C3 (stereo partly shown) [OZ207] : ____
32%

Reported % reduction of adult worms growth at day 49 after per os application of 200 mg/kg, TWR (%), compound C1CC2(CCN1)OOC1(O2)C2CC3CC(C2)CC1C3.Cl (stereo not shown) [OZ80] : ____
0%

---

- Test system: ANKA strain of P. berghei
- procedureSummary: single dose STI in vivo screen in infected mice
- Design: species or system Plasmodium berghei
- details: single 10 mg/kg sc in 3% ethanol and 7% Tween 80; untreated control 5.6 ± 0.3
propertyLabel: Survival (days) sc
Please state the figure in days; there is no need to write the unit.

Reported Survival (days) sc, compound CCCCS(=O)(=O)N1CCC2(CC1)OOC1(O2)C2CC3CC(C2)CC1C3 (stereo not drawn) [OZ92] : ____
10.0

Reported Survival (days) sc, compound NC(=O)CN(CC(N)=O)C[C@H]1CC[C@]2(CC1)OOC1(O2)C2CC3CC(C2)CC1C3 (stereo partly drawn) [OZ236] : ____
7.7

Reported Survival (days) sc, compound Clc1ccc(C2(c3ccc(Cl)cc3)OOC3(O2)C2CC4CC(C2)CC3C4)cc1 (stereo not drawn) [OZ43] : ____
7.3

Reported Survival (days) sc, compound C=C1COC2(CCC3(CC2)OOC2(O3)C3CC4CC(C3)CC2C4)OC1 (stereo not drawn) [OZ128] : ____
11.7

Reported Survival (days) sc, compound c1cn(CC[C@H]2CC[C@]3(CC2)OOC2(O3)C3CC4CC(C3)CC2C4)cn1 (stereo partly drawn) [OZ219] : ____
9.3

Reported Survival (days) sc, compound CN1CCN(C(=O)C[C@H]2CC[C@]3(CC2)OOC2(O3)C3CC4CC(C3)CC2C4)CC1 (stereo partly drawn) [OZ227] : ____
10.7

Reported Survival (days) sc, compound OCCC1CCC2(CC1)OOC1(O2)C2CC3CC(C2)CC1C3 (stereo not drawn) [OZ89] : ____
8.7

Reported Survival (days) sc, compound COC(=O)c1ccc(C2(c3ccc(C(=O)OC)c(C(=O)OC)c3)OOC3(O2)C2CC4CC(C2)CC3C4)cc1C(=O)OC (stereo not drawn) [OZ106] : ____
5.3

Reported Survival (days) sc, compound S=C(Nc1ccccc1)N1CCC2(CC1)OOC1(O2)C2CC3CC(C2)CC1C3 (stereo not drawn) [OZ144] : ____
16.7

Reported Survival (days) sc, compound CC(C)(C)ON=C1CCC2(CC1)OOC1(O2)C2CC3CC(C2)CC1C3 (stereo not drawn) [OZ28] : ____
12.3

Reported Survival (days) sc, compound O=C(O)c1cncn1C[C@H]1CC[C@]2(CC1)OOC1(O2)C2CC3CC(C2)CC1C3 (stereo partly drawn) [OZ231] : ____
6.0

Reported Survival (days) sc, compound CC1(C)COC2(CCC3(CC2)OOC2(O3)C3CC4CC(C3)CC2C4)OC1 (stereo not drawn) [OZ11] : ____
18

Reported Survival (days) sc, compound N#Cc1ccc(C2(c3ccccc3)OOC3(O2)C2CC4CC(C2)CC3C4)cc1 (stereo not drawn) [OZ124] : ____
7.0

Reported Survival (days) sc, compound CN(C)C(=O)NC[C@H]1CC[C@]2(CC1)OOC1(O2)C2CC3CC(C2)CC1C3 (stereo partly drawn) [OZ266] : ____
11.7

Reported Survival (days) sc, compound CCOC(=O)c1ccc(C2(c3ccc(C(=O)OCC)cc3)OOC3(O2)C2CC4CC(C2)CC3C4)cc1 (stereo not drawn) [OZ125] : ____
6.0

Reported Survival (days) sc, compound O=C(O)CC1CCC2(CC1)OOC1(O2)C2CC3CC(C2)CC1C3 (stereo not drawn) [OZ78] : ____
6.7

Reported Survival (days) sc, compound COc1ccc(S(=O)(=O)N2CCC3(CC2)OOC2(O3)C3CC4CC(C3)CC2C4)cc1 (stereo not drawn) [OZ59] : ____
10.0

Reported Survival (days) sc, compound c1ccc(C2(c3ccccc3)CCC3(CC2)OOC2(O3)C3CC4CC(C3)CC2C4)cc1 (stereo not drawn) [OZ34] : ____
5.7

Reported Survival (days) sc, compound c1cc(CN2CCC3(CC2)OOC2(O3)C3CC4CC(C3)CC2C4)ccn1 (stereo not drawn) [OZ216] : ____
11.0

Reported Survival (days) sc, compound C1C2CC3CC1CC(C2)C31OOC2(CCC(NC3CC3)CC2)O1 (stereo not drawn) [OZ185] : ____
10.7

Reported Survival (days) sc, compound O=S(=O)(c1cccc2cccnc12)N1CCC2(CC1)OOC1(O2)C2CC3CC(C2)CC1C3 (stereo not drawn) [OZ114] : ____
8.7

Reported Survival (days) sc, compound OCC1(CO)COC2(CCC3(CC2)OOC2(O3)C3CC4CC(C3)CC2C4)OC1 (stereo not drawn) [OZ121] : ____
7.3

Reported Survival (days) sc, compound CC(C)(CO)NC(=O)[C@H]1CC[C@]2(CC1)OOC1(O2)C2CC3CC(C2)CC1C3 (stereo partly drawn) [OZ129] : ____
5.7

Reported Survival (days) sc, compound COC(=O)C1(c2ccccc2)CCC2(CC1)OOC1(O2)C2CC3CC(C2)CC1C3 (stereo not drawn) [OZ98] : ____
7.3
